Test: Quantitative High-Throughput drug screen in 47 multiple myeloma cell lines against the NCATS MIPE library collection: KMM1_JCRB cell viability assay (AID 1918960); also: nearly all actives have a fitted effect of over 30% in size; also: potency is read from the fitted curve at half-maximal effect
Settings: KMM1 myeloma viability, CellTiter-Glo ATP luminescence, 48 h; series mostly up to 45.8 µM
Inconclusive results are not listed. Calls of active or inactive are those of the source. Calls follow the shape of the dose curve; as a rule, active = well fitted cell-killing curve with a large enough effect; inconclusive = small, poorly fitted or top-dose-only effect, or effect the other way; inactive = no such curve, though single readings can be large or run the other way.
parameter.measured: Potency

>>> obs_value("COc1cc(F)c(C(C)C)cc1-c1ccc(C(F)(F)F)cc1CN1C(=O)O[C@H](c2cc(C(F)(F)F)cc(C(F)(F)F)c2)[C@@H]1C")
"inactive"
>>> obs_value("C[C@@H]1O[C@@H](O[C@H]2CC[C@@]3(C)[C@H](CC[C@@H]4[C@H]3C[C@@H](O)[C@]3(C)[C@@H](C5=CC(=O)OC5)CC[C@]43O)C2)C[C@H](O)[C@@H]1O[C@H]1C[C@H](O)[C@H](O[C@H]2C[C@H](O)[C@@H](O)[C@@H](C)O2)[C@H](C)O1 (stereo in doubt)")
"76.2 nM (active)"
>>> obs_value("CC(C)(C)c1[nH]cnc1C=c1[nH]c(=O)c(=Cc2ccccc2)[nH]c1=O")
"inactive"
>>> obs_value("CC(C)(CO)[C@@H](O)C(=O)NCCC(=O)O")
"inactive"
>>> obs_value("CN1CCC[C@H]1CCO[C@](C)(c1ccccc1)c1ccc(Cl)cc1")
"inactive"
>>> obs_value("CN[C@@H]1[C@@H](O)[C@@H](O[C@@H]2[C@@H](O)[C@H](O[C@H]3O[C@H](CN)[C@@H](O)[C@H](O)[C@@H]3O)[C@@H](N)C[C@@H]2NC(=O)[C@@H](O)CN)OC[C@]1(C)O")
"inactive"

###

Tested on: 7G8
Experiment: qHTS profiling for inhibitors of Plasmodium falciparum proliferation (AID 504749); also: nearly all actives have a fitted effect of over 60% in size; also: potency is read from the fitted curve at half-maximal effect
Conditions: P. falciparum in erythrocytes, SYBR Green DNA, 72 h; series mostly up to 28.7 µM
Results filed as inconclusive are left out. The source made the active and inactive calls. Calls follow the shape of the dose curve; as a rule, active = well fitted inhibition curve with a large enough effect; inconclusive = small, poorly fitted or top-dose-only effect; inactive = flat fitted curve, though single readings scatter.
parameter.measured: Potency

>>> obs_value("N#Cc1c(N(CC(=O)O)CC(=O)O)sc(C(=O)O)c1CC(=O)O")
"inactive"
>>> obs_value("O=C(O)c1nc(=O)[nH]c(=O)[nH]1")
"inactive"
>>> obs_value("CS(=O)(=O)c1ccc(C2=C(c3ccccc3)C(=O)OC2)cc1")
"inactive"
>>> obs_value("Clc1ccc(COC(Cn2ccnc2)c2ccc(Cl)cc2Cl)c(Cl)c1 (configuration not stated)")
"0.708 µM (active)"
>>> obs_value("COc1cc2c(cc1OC)CC(=O)N(CCCN(C)C[C@H]1Cc3cc(OC)c(OC)cc31)CC2")
"11.2 µM (active)"
>>> obs_value("COc1c(C)c2c(c(O)c1CC=C(C)CCC(=O)OCCN1CCOCC1)C(=O)OC2")
"4.47 µM (active)"
>>> obs_value("CN1CCN2c3ncccc3Cc3ccccc3C2C1 (configuration not stated)")
"11.2 µM (active)"

###

Test: Quantitative High-Throughput drug screen in 47 multiple myeloma cell lines against the NCATS MIPE library collection: Karpas620_DSMZ cell viability assay (AID 1918959); also: nearly all actives have a fitted effect of over 30% in size
Conditions: Karpas620 myeloma viability, CellTiter-Glo ATP luminescence, 48 h; series mostly up to 45.8 µM
Records with an inconclusive call do not appear. Active and inactive are the calls of the source. Calls come from the whole dose curve; as a rule, active = well fitted cell-killing curve with a large enough effect; inconclusive = small, poorly fitted or top-dose-only effect, or effect the other way; inactive = no such curve, though single readings can be large or run the other way.
Possible outcomes: yes = active, no = inactive

>>> assigned_label("Cc1nc(NC(=O)N2CCC[C@@H]2C(N)=O)sc1-c1csc(C(C)(C)C)n1")
"yes"
>>> assigned_label("COc1ccc(Cn2ccc3ccc(C(=O)NO)cc32)cc1")
"no"
>>> assigned_label("Nc1ncnc2c1ncn2[C@@H]1O[C@H](CO)[C@@H](O)[C@@H]1O")
"yes"
>>> assigned_label("Clc1ccc(COC(Cn2ccnc2)c2ccc(Cl)cc2Cl)c(Cl)c1 (stereo unspecified)")
"yes"
>>> assigned_label("O=C(O)C1=NC(C(=O)O)CC(C=CN2c3cc(O)c(OC4OC(CO)C(O)C(O)C4O)cc3CC2C(=O)O)=C1 (stereo unspecified)")
"no"
>>> assigned_label("CN[C@H]1[C@@H](O[C@@H]2[C@H](O[C@@H]3[C@@H](O)[C@@H](O)[C@@H](N=C(N)N)[C@@H](O)[C@@H]3N=C(N)N)O[C@H](C)[C@@]2(O)C=O)O[C@@H](CO)[C@@H](O)[C@H]1O")
"no"
>>> assigned_label("CN(C)CCOc1ccc(-c2nc(-c3ccc4c(c3)CCC4=NO)c(-c3ccncc3)[nH]2)cc1")
"yes"
>>> assigned_label("CC1C(=O)OC2C(O)C34C5CC(C(C)(C)C)C36C(OC(=O)C6O)OC4(C(=O)O5)C12O (stereo unspecified)")
"no"
>>> assigned_label("Fc1ccc(CNc2ncnc3ccc(F)cc23)cc1")
"yes"
>>> assigned_label("C[C@@H]1[C@H](C)CC[C@]2(C(=O)O)CC[C@]3(C)C(=CC[C@@H]4[C@@]5(C)CC[C@H](O)C(C)(C)[C@H]5CC[C@]43C)[C@@H]12")
"no"
>>> assigned_label("NC(=O)c1ccc(N(C(N)=O)c2c(F)cccc2F)nc1-c1ccc(F)cc1F")
"no"
>>> assigned_label("N[C@@H](CC(=O)N1CCn2c(nnc2C(F)(F)F)C1)Cc1cc(F)c(F)cc1F")
"no"
>>> assigned_label("CC[C@H]1OC(=O)[C@H](C)[C@@H](O[C@H]2C[C@@](C)(OC)[C@@H](O)[C@H](C)O2)[C@H](C)[C@@H](O[C@@H]2O[C@H](C)C[C@H](N(C)C)[C@H]2O)[C@](C)(O)C[C@H](C)C(=NOCOCCOC)[C@H](C)[C@@H](O)[C@]1(C)O")
"no"
>>> assigned_label("COc1ccc(-c2oc3c(CC=C(C)C)c(O)cc(O)c3c(=O)c2O)cc1")
"no"
>>> assigned_label("CCNC(=O)[C@H]1O[C@@H](n2cnc3c(N)nc(NCCc4ccc(CCC(=O)O)cc4)nc32)[C@H](O)[C@H]1O")
"no"
>>> assigned_label("C[C@]12CC[C@@H]3c4ccc(O)cc4CC[C@H]3[C@H]1[C@@H](O)[C@@H](O)[C@H]2O")
"no"

###

Assay: qHTS assay for measurement of the activity of small molecule inhibitors on Zika virus induced Caspase-3 activity in human astrocytoma cells (AID 1224859)
Conditions: SNB-19 ZIKV-induced caspase-3/7, luminescence, 6 h; series mostly up to 45.7 µM
Activity calls are given as the source filed them. The call rests on the fitted dose curve; in most records, active means well fitted inhibition curve with a large enough effect; inconclusive means small, poorly fitted or top-dose-only effect; inactive means no such curve, though single readings can be large or run the other way.
Possible outcomes: active, inactive

>>> assigned_label("Cc1cc(OCCCS(C)(=O)=O)cc(C)c1-c1cccc(COc2ccc3c(c2)OC[C@H]3CC(=O)O)c1")
"inactive"
>>> assigned_label("Cc1cnc(Nc2cccc(CN3CCOCC3)c2)nc1Nc1cccc(S(=O)(=O)NC(C)(C)C)c1")
"inactive"
>>> assigned_label("O=C1NC(=O)C(c2cnc3ccccn23)=C1c1cn2c3c(cccc13)CN(C(=O)N1CCOCC1)CC2")
"inactive"
>>> assigned_label("CN1[C@H]2CC[C@H]1CC(OC(=O)c1c[nH]c3ccccc13)C2 (stereo not given in full)")
"inactive"
>>> assigned_label("O=c1cc(-c2ccc(O)c(O)c2)oc2cc(O)cc(O)c12")
"inactive"
>>> assigned_label("N#CC(c1ccnc(NCCc2cccnc2)n1)c1nc2ccccc2s1 (stereo not given)")
"inactive"
>>> assigned_label("NC(N)=Nc1nc(CSCCC(N)=NS(N)(=O)=O)cs1")
"inactive"
>>> assigned_label("CC1=C(C(=O)Nc2cc3cn[nH]c3cc2F)C(c2ccc(C(F)(F)F)cc2)CC(=O)N1 (stereo not given)")
"inactive"
>>> assigned_label("CC(C)CN(C[C@H](O)[C@H](Cc1ccccc1)NC(=O)O[C@H]1CCOC1)S(=O)(=O)c1ccc(N)cc1")
"inactive"
>>> assigned_label("CC(C)n1c(C=C[C@H](O)C[C@H](O)CC(=O)O)c(-c2ccc(F)cc2)c2ccccc21")
"inactive"
>>> assigned_label("COC(=O)[C@H](c1ccccc1Cl)N1CCc2sccc2C1")
"inactive"
>>> assigned_label("Clc1ccc(COC(Cn2ccnc2)c2ccc(Cl)cc2Cl)c(Cl)c1 (stereo not given)")
"inactive"
>>> assigned_label("Cc1cc(NC(=O)Nc2ccc(N(C)C)cc2)c2cc(F)cc(F)c2n1")
"inactive"
>>> assigned_label("CN1C(=O)C[C@H](C(=O)N[C@@H](Cc2cnc[nH]2)C(=O)N2CCC[C@@H]2C(N)=O)NC1=O")
"inactive"
>>> assigned_label("N#CC1(c2cccc(C(=O)Nc3cc(Oc4ccc5nc(NC(=O)C6CC6)sc5n4)ccc3F)c2Cl)CC1")
"inactive"
>>> assigned_label("CO[C@H]1O[C@@H]2O[C@@]3(C)CC[C@@H]4[C@@H](C)CC[C@@H]([C@H]1C)[C@@]24OO3")
"inactive"
>>> assigned_label("CC1CNc2c(cccc2S(=O)(=O)N[C@@H](CCCN=C(N)N)C(=O)N2CC[C@@H](C)C[C@@H]2C(=O)O)C1 (stereo not given in full)")
"inactive"
>>> assigned_label("C[C@@H]1O[C@@H](O[C@H]2CC[C@@]3(C)[C@H](CC[C@@H]4[C@H]3C[C@@H](O)[C@]3(C)[C@@H](C5=CC(=O)OC5)CC[C@]43O)C2)C[C@H](O)[C@@H]1O[C@H]1C[C@H](O)[C@H](O[C@H]2C[C@H](O)[C@@H](O)[C@@H](C)O2)[C@H](C)O1 (stereo in doubt)")
"inactive"
>>> assigned_label("CCc1cccc(CC)c1NC(=O)N1Cc2[nH]nc(NC(=O)c3ccc(N4CCN(C)CC4)cc3)c2C1")
"inactive"
>>> assigned_label("CC(C)(F)C[C@H](N[C@@H](c1ccc(-c2ccc(S(C)(=O)=O)cc2)cc1)C(F)(F)F)C(=O)NC1(C#N)CC1")
"inactive"
>>> assigned_label("C[C@H]1[C@H](O)O[C@@H]2O[C@@]3(C)CC[C@@H]4[C@H](C)CC[C@@H]1[C@@]24OO3")
"inactive"
>>> assigned_label("C[C@@H]1[C@H](O)[C@@H](C)C=CC=CC=CC=CC=CC=CC=C[C@H](O[C@@H]2O[C@H](C)[C@H](O)[C@H](N)[C@@H]2O)C[C@@H]2O[C@](O)(C[C@@H](O)C[C@@H](O)[C@H](O)CC[C@@H](O)C[C@@H](O)CC(=O)O[C@H]1C)C[C@H](O)[C@@H]2C(=O)O")
"inactive"
>>> assigned_label("CN[C@@H]1[C@@H](O)[C@@H](O[C@@H]2[C@@H](O)[C@H](O[C@H]3O[C@H](CN)[C@@H](O)[C@H](O)[C@@H]3O)[C@@H](N)C[C@@H]2NC(=O)[C@@H](O)CN)OC[C@]1(C)O")
"inactive"
>>> assigned_label("COc1ccc(C=CC(=O)Nc2ccccc2C(=O)O)cc1OC")
"active"
>>> assigned_label("CC(C)c1c(C(=O)Nc2ccccc2)c(-c2ccccc2)c(-c2ccc(F)cc2)n1CC[C@H](O)C[C@@H](O)CC(=O)O")
"inactive"
>>> assigned_label("CN1CC(=O)NC1=NC(=O)Nc1cccc(Cl)c1")
"inactive"
>>> assigned_label("CN1CCN2c3ncccc3Cc3ccccc3C2C1 (stereo not given)")
"inactive"
>>> assigned_label("CNC(=O)[C@H](CC1=CN=C2C=CCC=C12)NC(=O)[C@@H](CC(=O)NO)CC(C)C")
"inactive"
>>> assigned_label("CC(=O)NCCC(=O)N[C@@H](CCC(N)=O)C(=O)N[C@@H](CO)C(=O)N[C@@H](CCC(N)=O)C(=O)N[C@@H](CCC(N)=O)C(=O)N[C@H](C(=O)N[C@@H](Cc1ccccc1)C(=O)N[C@]1(C)CCCCCCC=CCCC[C@@](C)(C(=O)N[C@@H](CCC(N)=O)C(=O)N[C@@H](CC(N)=O)C(N)=O)NC(=O)[C@H](CC(C)C)NC(=O)[C@H](CC(C)C)NC(=O)[C@@H](CCCNC(=N)N)NC(=O)[C@H](Cc2c[nH]c3ccccc23)NC(=O)[C@H](CC(C)C)NC(=O)[C@H](CC(N)=O)NC1=O)[C@H](C)O")
"inactive"
>>> assigned_label("O=C(O)C1=CO[C@@H](O[C@@H]2O[C@H](CO)[C@H](O)[C@H](O)[C@H]2O)[C@@H]2C(CO)=CC[C@H]12")
"inactive"
